The origin of these recorded values is patent US10189838B2.

# Tested on: RSV Long strain
# protocol: Viral cytopathic effect (CPE) assay, RSV Long strain
# Format: cell-based, Respiratory Syncytial Virus
# applied_conditions: cell viability after 6 days (Cell Counting kit-8)
readout_type: EC50

## Task Need EC50, item N=C(N)NCCn1c(CN2C(=O)C3(CC3)c3ccncc32)cc2cc(Cl)ccc21 [Example 28]
## Result 64 nM

----------
# Tested on: RSV Long strain
# protocol: Viral cytopathic effect (CPE) assay, RSV Long strain
# Format: cell-based, Respiratory Syncytial Virus
# applied_conditions: human respiratory syncytial virus, 144 h, cell viability after 6 days (Cell Counting kit-8)
# Method: EC50: the concentration of a compound where 50% of its maximal protection effect against viral induced CPE is observed LongStrain: an A subtype RSV strain obtained from ATCC with catalog number VR-26 To measure anti-RSV activity of compounds, 96-well plates are seeded with 6×10^3 cells per well in Dulbecco's modified Eagle's medium (DMEM) containing 10% fetal bovine serum (FBS). […] The viability of cells is assessed after 6 days using Cell Counting kit-8 (Dojindo Molecular Technologies). […]
readout_type: EC50 (nM)
Give just the number in nM; leave the unit off.

> print(dat)
                                   compound  recorded.result
1  CS(=O)(=O)CCCCn1c(CN2C(=O)C3(CC3)c3ccncc32)cc2cc(Cl)ncc21 [Example 4-7]               27
2  CS(=O)(=O)NCCCn1c(CN2C(=O)C3(CC3)c3ccncc32)cc2cc(Cl)ccc21 [Example 27-3]              499

## Task Need EC50, item CCS(=O)(=O)CCn1c(CN2C(=O)C3(CC3)c3ccncc32)cc2cc(Cl)cnc21 [Example 2-2]
## Result 19

## Task Need EC50, item CS(=O)(=O)CCn1c(CN2C(=O)C3(CC3)c3c(Br)cccc32)nc2cc(Cl)ccc21 [Example 34-4]
## Result 205

## Task Need EC50, item CS(=O)(=O)CCn1c(CN2C(=O)C3(CC3)c3cc(F)ccc32)cc2cc(Cl)cnc21 [Example 2-7]
## Result 750

## Task Need EC50, item O=C1N(Cc2cc3cc(Cl)ccc3n2CCCO)c2cnccc2C12CC2 [Example 8]
## Result 58

## Task Need EC50, item CC(=O)NS(=O)(=O)CCCn1c(CN2C(=O)C3(CC3)c3ccncc32)cc2cc(Cl)cnc21 [Example 26-2]
## Result 1920
